assay: In vitro corneal metabolism, dog; assay type: in vitro ADME, beagle dogs; conditions: beagle, corneal tissue punches, 37°C, pH 6.5, read-out: t1/2 of corneal metabolism
Quantity kind: half-life at 200 µM (h)
Give the value, in units of h, as a plain number.

Return reported half-life at 200 µM; argument: Cc1ccc(C(=O)OCc2ccc([C@@H](CN)C(=O)Nc3ccc4cnccc4c3)cc2)c(C)c1
1.63

====

assay: In vitro corneal metabolism, pig; format: in vitro ADME; conditions: corneal tissue punches, 37°C, pH 6.5, read-out: t1/2 of corneal metabolism
Quantity kind: half-life at 200 µM (h)
Give the value, in units of h, as a plain number.

Return reported half-life at 200 µM; argument: Cc1ccc(C(=O)OCc2ccc([C@@H](CN)C(=O)Nc3ccc4cnccc4c3)cc2)c(C)c1 [Netarsudil]
2.6

====

In this section we review reported pKi values for a set of molecules.
target: myotonic dystrophy kinase-related CDC42-binding kinase alpha (MRCKA) (Homo sapiens, UniProt Q5VT25)
Sequence (Q5VT25 whole entry): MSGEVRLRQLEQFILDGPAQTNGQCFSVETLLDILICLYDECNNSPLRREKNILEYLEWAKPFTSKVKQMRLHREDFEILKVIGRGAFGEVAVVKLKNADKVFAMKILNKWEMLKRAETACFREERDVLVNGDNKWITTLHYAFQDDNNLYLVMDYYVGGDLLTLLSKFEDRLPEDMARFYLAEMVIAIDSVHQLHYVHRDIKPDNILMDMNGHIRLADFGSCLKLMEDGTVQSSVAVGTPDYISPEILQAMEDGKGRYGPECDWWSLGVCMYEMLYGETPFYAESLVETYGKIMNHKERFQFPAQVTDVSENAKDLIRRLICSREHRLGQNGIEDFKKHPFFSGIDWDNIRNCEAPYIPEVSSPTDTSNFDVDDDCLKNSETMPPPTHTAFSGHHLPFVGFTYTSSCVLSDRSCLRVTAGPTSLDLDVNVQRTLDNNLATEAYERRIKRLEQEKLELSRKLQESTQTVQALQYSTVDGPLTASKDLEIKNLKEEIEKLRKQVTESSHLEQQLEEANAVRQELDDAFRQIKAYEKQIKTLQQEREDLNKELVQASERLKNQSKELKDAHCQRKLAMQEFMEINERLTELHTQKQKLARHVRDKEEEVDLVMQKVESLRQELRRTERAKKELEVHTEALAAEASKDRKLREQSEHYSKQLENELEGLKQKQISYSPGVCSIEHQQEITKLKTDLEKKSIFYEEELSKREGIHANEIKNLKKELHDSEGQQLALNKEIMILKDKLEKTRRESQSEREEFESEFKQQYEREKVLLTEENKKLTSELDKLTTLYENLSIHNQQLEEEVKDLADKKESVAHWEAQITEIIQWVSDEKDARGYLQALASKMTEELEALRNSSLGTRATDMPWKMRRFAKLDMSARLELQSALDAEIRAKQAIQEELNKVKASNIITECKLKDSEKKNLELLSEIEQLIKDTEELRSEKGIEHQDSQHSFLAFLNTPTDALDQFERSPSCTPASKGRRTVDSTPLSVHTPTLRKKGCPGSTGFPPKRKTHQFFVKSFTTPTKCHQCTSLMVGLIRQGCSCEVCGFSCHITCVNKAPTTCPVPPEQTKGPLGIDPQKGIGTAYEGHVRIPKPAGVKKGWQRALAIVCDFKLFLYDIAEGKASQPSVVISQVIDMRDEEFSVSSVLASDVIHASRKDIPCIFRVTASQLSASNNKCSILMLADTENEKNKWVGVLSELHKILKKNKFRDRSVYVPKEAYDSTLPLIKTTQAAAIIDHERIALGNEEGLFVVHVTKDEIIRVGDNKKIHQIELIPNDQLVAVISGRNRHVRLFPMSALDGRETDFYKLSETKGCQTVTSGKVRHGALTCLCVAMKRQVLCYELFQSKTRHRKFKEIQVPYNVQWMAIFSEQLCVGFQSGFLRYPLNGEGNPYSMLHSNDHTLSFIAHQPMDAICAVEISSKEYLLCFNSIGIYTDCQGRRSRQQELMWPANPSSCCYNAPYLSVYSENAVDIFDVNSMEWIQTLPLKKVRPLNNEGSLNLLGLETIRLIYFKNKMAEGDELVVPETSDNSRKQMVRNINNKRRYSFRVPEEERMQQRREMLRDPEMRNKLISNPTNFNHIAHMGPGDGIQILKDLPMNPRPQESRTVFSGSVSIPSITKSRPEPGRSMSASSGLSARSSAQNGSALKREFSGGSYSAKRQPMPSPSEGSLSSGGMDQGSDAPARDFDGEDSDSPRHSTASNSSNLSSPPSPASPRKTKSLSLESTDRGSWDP
Interpret pKi as the negative base-10 log of the concentration measured in mol/L.

Return reported pKi; argument: NC[C@@H](C(=O)Nc1ccc2cnccc2c1)c1ccc(CO)cc1 [Netarsudil-M1]
8.15

***
Return reported pKi; argument: CN(C)C(C(=O)Nc1ccc2c(=O)[nH]ccc2c1)c1ccsc1 (centres unmarked) [AR-12286]
7.55

====

experiment: Ocular metabolism: levels in aqueous humor after topical ocular dosing; format: in vivo, New Zealand rabbits; details: male, New Zealand, rabbit, aqueous humor, topical, 0.02 %; read-out: concentration in AH, single sample above limit of detection
Quantity kind: concentration at 4 h

Return reported concentration at 4 h; argument: Cc1ccc(C(=O)OCc2ccc([C@@H](CN)C(=O)Nc3ccc4cnccc4c3)cc2)c(C)c1
1.82 ng/mL

====

test: In vitro corneal metabolism, rabbit; format: in vitro ADME, Dutch Belted rabbits; settings: Dutch Belted, corneal tissue punches, 37°C, pH 6.5, read-out: t1/2 of corneal metabolism
Quantity kind: half-life at 200 µM (h)
Give the value, in units of h, as a plain number.

Return reported half-life at 200 µM; argument: Cc1ccc(C(=O)OCc2ccc([C@@H](CN)C(=O)Nc3ccc4cnccc4c3)cc2)c(C)c1
2.33

====

target: calcium/calmodulin-dependent protein kinase II Alpha (CAMK2A) (Homo sapiens); assay: Kinase-Glo luminescent protein kinase assay, CAMK2A; details: average of ≥3 replicate experiments; read-out: CAM2A Ki
Sequence (Q9UQM7 whole entry): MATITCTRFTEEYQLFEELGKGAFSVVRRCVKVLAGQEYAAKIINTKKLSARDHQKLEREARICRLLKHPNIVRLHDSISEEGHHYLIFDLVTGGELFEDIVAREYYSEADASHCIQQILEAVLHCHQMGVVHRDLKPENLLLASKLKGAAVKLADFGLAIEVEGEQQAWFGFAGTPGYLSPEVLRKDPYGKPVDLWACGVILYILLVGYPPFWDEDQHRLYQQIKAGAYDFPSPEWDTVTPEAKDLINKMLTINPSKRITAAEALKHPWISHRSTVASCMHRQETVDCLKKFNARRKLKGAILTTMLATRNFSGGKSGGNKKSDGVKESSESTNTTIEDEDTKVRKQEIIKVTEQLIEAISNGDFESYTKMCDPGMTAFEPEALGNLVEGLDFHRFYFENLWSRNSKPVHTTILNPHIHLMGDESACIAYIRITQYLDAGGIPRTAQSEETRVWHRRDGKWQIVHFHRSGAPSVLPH
In this section we review reported pKi values for a set of compounds.
Interpret pKi as the negative base-10 log of the concentration measured in mol/L.

Here is how some compounds turned out for pKi.
Return pKi measured with calcium/calmodulin-dependent protein kinase II Alpha (CAMK2A) (Homo sapiens) given this compound: CN(C)C(C(=O)Nc1ccc2c(=O)[nH]ccc2c1)c1ccsc1 (stereo not drawn) [AR-12286]
5.23

Return pKi measured with calcium/calmodulin-dependent protein kinase II Alpha (CAMK2A) (Homo sapiens) given this compound: NC[C@@H](C(=O)Nc1ccc2cnccc2c1)c1ccc(CO)cc1 [Netarsudil-M1]
4.86

Now take the following compound into account.
Return pKi measured with calcium/calmodulin-dependent protein kinase II Alpha (CAMK2A) (Homo sapiens) given this compound: Cc1ccc(C(=O)OCc2ccc([C@@H](CN)C(=O)Nc3ccc4cnccc4c3)cc2)c(C)c1 [Netarsudil]
5.27

====

assay: In vitro corneal metabolism, human; format: in vitro ADME; conditions: corneal tissue punches, 37°C, pH 6.5, read-out: t1/2 of corneal metabolism
Quantity kind: half-life at 200 µM (h)
Give the value, in units of h, as a plain number.

Return reported half-life at 200 µM; argument: Cc1ccc(C(=O)OCc2ccc([C@@H](CN)C(=O)Nc3ccc4cnccc4c3)cc2)c(C)c1
2.92
